// data source = patent US20060160851A1

System: hormone sensitive lipase (Homo sapiens)
Construct: made in house
Procedure Summary: Assay 3190.1: percent inhibition of hormone sensitive lipase by compound at 10 μM (fluorochrome-labeled triacylglyceride emulsion, HSL_FL)
Type: biochemical
Measurement Setup: 10 μM sample concentration; % activity relative to non-inhibited sample (no compound); 30 min preincubation at 25° C., 120 min incubation at 37° C.; read-out: Test 3190.1 HSL_FL % ACTIVITY
Would you mind labelling by activity at 10 µM? At or over 3% is YES, under is NO.

INSERT INTO assay_data (compound, class) VALUES
  ('O=C(O)Cc1ccc(OC2CCN(C(=O)Oc3ccc(Oc4ccc(Cl)cn4)cc3)CC2)cc1 [Example 117]', 'YES'),
  ('O=C(O)Cc1cccc(OC2CCN(C(=O)Oc3ccc(Oc4ccc(C(F)(F)F)cn4)cc3)CC2)c1 [Example 110]', 'YES'),
  ('C=CCOC(=O)Cc1ccc(OC2CCN(C(=O)Oc3ccc(CCN4C(=O)CC(C)(C)CC4=O)cc3)CC2)cc1 [Example 55]', 'NO'),
  ('CN(CCC1CCN(C(=O)Oc2ccc(Oc3ccc(C(F)(F)F)cn3)cc2)CC1)Cc1ccccc1 [Example 1]', 'NO'),
  ('O=C(Oc1ccc(Cc2ccc(C(F)(F)F)cc2)cc1)N1CCC(Cc2ncccn2)CC1 [Example 67]', 'YES'),
  ('O=C(O)Cc1ccc(OC2CCN(C(=O)Oc3ccc(C(=O)NCCc4cccs4)cc3)CC2)cc1 [Example 91]', 'YES'),
  ('O=C(O)c1coc(-c2ccc(OC3CCN(C(=O)Oc4ccc(Oc5ccc(C(F)(F)F)cn5)cc4)CC3)cc2)n1 [Example 36]', 'YES'),
  ('O=C(O)Cc1ccc(OC2CCN(C(=O)Oc3ccc(Cc4ncc(C(F)(F)F)cc4Cl)cc3)CC2)cc1 [Example 102]', 'YES'),
  ('Cc1ccc(Cc2ccc(OC(=O)N3CCC(On4cccn4)CC3)cc2)nc1 [Example 48]', 'NO'),
  ('O=C(O)Cc1ccc(OC2CCN(C(=O)Oc3ccc(Oc4ccc(C(F)(F)F)cc4)cc3)CC2)cc1 [Example 103]', 'YES');

----------
System: hormone sensitive lipase (Homo sapiens, UniProt Q05469)
Construct: made in house
Sequence (Q05469 whole entry, species assumed): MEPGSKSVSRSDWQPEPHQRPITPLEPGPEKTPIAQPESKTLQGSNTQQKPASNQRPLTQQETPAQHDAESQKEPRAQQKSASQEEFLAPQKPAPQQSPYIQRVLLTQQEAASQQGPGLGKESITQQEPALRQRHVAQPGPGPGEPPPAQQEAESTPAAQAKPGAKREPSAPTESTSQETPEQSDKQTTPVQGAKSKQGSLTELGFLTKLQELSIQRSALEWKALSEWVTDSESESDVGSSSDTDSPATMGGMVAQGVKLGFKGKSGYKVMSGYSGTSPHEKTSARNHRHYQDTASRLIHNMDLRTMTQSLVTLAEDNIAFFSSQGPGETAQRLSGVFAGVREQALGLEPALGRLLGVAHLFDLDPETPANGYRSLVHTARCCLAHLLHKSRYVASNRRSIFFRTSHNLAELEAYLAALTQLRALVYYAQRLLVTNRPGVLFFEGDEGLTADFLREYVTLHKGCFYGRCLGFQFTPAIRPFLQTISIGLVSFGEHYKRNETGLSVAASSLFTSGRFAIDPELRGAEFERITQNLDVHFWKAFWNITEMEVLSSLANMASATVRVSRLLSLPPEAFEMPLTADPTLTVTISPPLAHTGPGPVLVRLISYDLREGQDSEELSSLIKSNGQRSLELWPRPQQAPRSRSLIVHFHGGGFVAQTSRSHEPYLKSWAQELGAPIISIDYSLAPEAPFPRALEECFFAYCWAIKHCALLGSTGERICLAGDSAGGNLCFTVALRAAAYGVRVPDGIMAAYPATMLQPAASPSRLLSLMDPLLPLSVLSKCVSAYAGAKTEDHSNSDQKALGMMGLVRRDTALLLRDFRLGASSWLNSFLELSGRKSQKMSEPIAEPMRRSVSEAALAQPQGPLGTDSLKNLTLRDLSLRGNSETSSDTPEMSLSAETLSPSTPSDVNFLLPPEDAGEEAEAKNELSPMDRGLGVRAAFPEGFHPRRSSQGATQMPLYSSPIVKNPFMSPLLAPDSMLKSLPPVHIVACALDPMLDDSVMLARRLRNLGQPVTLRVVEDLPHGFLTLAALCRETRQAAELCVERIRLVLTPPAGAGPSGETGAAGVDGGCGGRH
Procedure Summary: Assay 3190.1: percent inhibition of hormone sensitive lipase by compound at 10 μM (fluorochrome-labeled triacylglyceride emulsion, HSL_FL)
Type: biochemical
Measurement Setup: 10 μM sample concentration; % activity relative to non-inhibited sample (no compound); 30 min preincubation at 25° C., 120 min incubation at 37° C.; read-out: Test 3190.1 HSL_FL % ACTIVITY
Listed molecules paired with reported activity at 10 µM
Test Readout: activity at 10 µM

INSERT INTO assay_data (structure_as_smiles, measured) VALUES
  ('O=C(Oc1ccc(Oc2ccc(C(F)(F)F)cn2)cc1)N1CCC(On2nccc2Sc2ccccc2)CC1', '11%'),
  ('CC(C)(C)CCNC(=O)c1ccc(OC(=O)N2CCC(Oc3ccc(C(=O)O)cc3)CC2)cc1', '11%'),
  ('O=C(O)c1ccc(OC2CCN(C(=O)Oc3ccc(Oc4ccc(C(F)(F)F)cn4)cc3)CC2)cc1', '5%'),
  ('Cc1ccc(CC2CCN(C(=O)Oc3ccc(Cc4ccc(C(F)(F)F)cc4)cc3)CC2)nc1', '9%'),
  ('CC1(C)CC(=O)N(CCc2ccc(OC(=O)N3CCC(Oc4ccc(C(=O)O)cc4)CC3)cc2)C(=O)C1', '31%'),
  ('O=C(O)CCc1cccc(OC2CCN(C(=O)Oc3ccc(Oc4ccc(C(F)(F)F)cn4)cc3)CC2)c1', '14%'),
  ('O=C(Oc1ccc(Oc2ccc(C(F)(F)F)cn2)cc1)N1CCC(Oc2ccc(N3CCN(C4CCCC4)CC3)cc2)CC1', '4%'),
  ('O=C(O)CCc1ccc(OC2CCN(C(=O)Oc3ccc(Oc4ccc(C(F)(F)F)cn4)cc3)CC2)cc1', '1%');
